Molecular target: sim3-GFP (Arabidopsis thaliana) (UniProt P93002)
Sequence (P93002 other isoform, or with tags, fused parts or gaps): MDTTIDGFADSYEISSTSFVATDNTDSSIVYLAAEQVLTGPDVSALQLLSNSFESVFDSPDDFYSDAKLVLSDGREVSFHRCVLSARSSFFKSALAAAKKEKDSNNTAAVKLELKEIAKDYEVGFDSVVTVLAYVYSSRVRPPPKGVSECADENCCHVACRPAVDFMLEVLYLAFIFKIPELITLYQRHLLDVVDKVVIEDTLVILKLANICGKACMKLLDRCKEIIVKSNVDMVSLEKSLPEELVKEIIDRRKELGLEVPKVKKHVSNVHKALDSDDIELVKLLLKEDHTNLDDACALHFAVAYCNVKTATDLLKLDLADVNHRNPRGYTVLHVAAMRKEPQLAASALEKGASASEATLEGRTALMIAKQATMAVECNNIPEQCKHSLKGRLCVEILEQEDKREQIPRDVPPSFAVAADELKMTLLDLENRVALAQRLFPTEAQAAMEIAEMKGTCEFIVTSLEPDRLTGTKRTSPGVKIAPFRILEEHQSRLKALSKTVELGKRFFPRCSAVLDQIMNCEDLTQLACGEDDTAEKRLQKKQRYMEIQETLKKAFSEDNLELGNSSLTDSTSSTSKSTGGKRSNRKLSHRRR
Test: sim3-GFP IP, LC-MS/MS
metric: Normalized Fold Change: SA vs Mock

binder | recordedResult
GPX8, glutathione peroxidase 8 (protein, UniProt Q8LBU2 1-167, looked up) Probable glutathione peroxidase 8: MATKEPESVYELSIEDAKGNNLALSQYKDKVLLIVNVASKCGMTNSNYTELNELYNRYKDKGLEILAFPCNQFGDEEPGTNDQITDFVCTRFKSEFPIFNKIEVNGENASPLYKFLKKGKWGIFGDDIQWNFAKFLVDKNGQAVQRYYPTTSPLTLEHDIKNLLNIS | 19.6 fold
NIMIN1 (protein, UniProt Q9FNZ5 1-142, looked up) Protein NIM1-INTERACTING 1: MYPKQFSLYNYSLETMSKDENVESKETIRVDKRVREDEEEEEEKKIDTFFKLIKHYQEARKRRREELAENSGVVRRKSNGGERSGIVVPAFQPEDFSQCRTGLKPPLMFVSDHKEENTKVEQEEDQTEERNEDKALDLNLAL | 17.7 fold
ELI3-2, elicitor-activated gene 3-2 (protein, UniProt Q02972 1-359, looked up) Cinnamyl alcohol dehydrogenase 8: MGKVLQKEAFGLAAKDNSGVLSPFSFTRRETGEKDVRFKVLFCGICHSDLHMVKNEWGMSTYPLVPGHEIVGVVTEVGAKVTKFKTGEKVGVGCLVSSCGSCDSCTEGMENYCPKSIQTYGFPYYDNTITYGGYSDHMVCEEGFVIRIPDNLPLDAAAPLLCAGITVYSPMKYHGLDKPGMHIGVVGLGGLGHVGVKFAKAMGTKVTVISTSEKKRDEAINRLGADAFLVSRDPKQIKDAMGTMDGIIDTVSATHSLLPLLGLLKHKGKLVMVGAPEKPLELPVMPLIFERKMVMGSMIGGIKETQEMIDMAGKHNITADIELISADYVNTAMERLEKADVRYRFVIDVANTLKPNPNL | 57 fold

Origin of the recorded values: patent US20230227838A1
